// provenance: paper PMC6652260

Target: human placental HSD11B2 (Homo sapiens)
Sequence (P80365 whole entry): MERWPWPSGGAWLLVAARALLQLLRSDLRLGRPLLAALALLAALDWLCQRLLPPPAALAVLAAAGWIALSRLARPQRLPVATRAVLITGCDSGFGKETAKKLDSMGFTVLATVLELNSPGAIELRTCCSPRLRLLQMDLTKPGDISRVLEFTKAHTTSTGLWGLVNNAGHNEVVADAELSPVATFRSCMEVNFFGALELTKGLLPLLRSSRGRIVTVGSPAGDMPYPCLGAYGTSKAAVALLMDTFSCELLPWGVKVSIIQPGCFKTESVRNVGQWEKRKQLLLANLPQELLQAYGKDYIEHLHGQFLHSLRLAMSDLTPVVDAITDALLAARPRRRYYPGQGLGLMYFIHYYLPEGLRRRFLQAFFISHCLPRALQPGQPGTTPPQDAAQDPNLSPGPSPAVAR
result.type: IC50 (µM)
Numbers only, in µM.

# input Answer with IC50 of `CC/C(=C(/CC)c1ccc(O)cc1)c1ccc(O)cc1` measured for human placental HSD11B2 (Homo sapiens).
# output 12.6
